src = the RNAGym collection of RNA variant scans (doi:10.1038/nmeth.2970)

Record form. Attribute: Kd. Fill in for each entry.
B1: NELF-E aptamer (parent)
chain: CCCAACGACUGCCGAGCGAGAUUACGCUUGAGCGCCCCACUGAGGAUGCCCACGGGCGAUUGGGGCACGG

- Variants of: B1
- assayNotes: HiTS-RAP
- conditionSummary: with NELF-E (Drosophila)
Answers are plain numbers, in nM.

Dear colleague, could you please provide Kd for the variants listed below?
1. A4G
2. G7U U41G
3. C6G G14A

[5.08, 6.05, 5.15]

Give Kd for each of the items listed below.
1. A4U C57U
2. G11A U29G

1. 5.44
2. 6.58

Hi, could you look up Kd for each item in my list?
1. A5G A31U
2. G16U A52U
3. U10G G48A
4. C17G U29C
5. C36A
6. A8G U23C

[5.74, 19.7, 8.83, 4.96, 8.24, 4.62]
